Numbers sourced from patent US20220348670A1.

# Tested on: T1, full-length human OX40 protein (human, UniProt P43489 29-277)
# T1 sequence (looked up): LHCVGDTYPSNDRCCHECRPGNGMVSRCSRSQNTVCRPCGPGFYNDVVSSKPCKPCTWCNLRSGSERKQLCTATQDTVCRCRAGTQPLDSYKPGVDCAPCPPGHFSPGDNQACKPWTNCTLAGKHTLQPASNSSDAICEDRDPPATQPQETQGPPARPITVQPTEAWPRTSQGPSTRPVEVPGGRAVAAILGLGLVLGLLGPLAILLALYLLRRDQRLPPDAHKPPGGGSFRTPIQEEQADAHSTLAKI
# Method notes: cell-based or functional assay
Measurement kind: Maximum value (RLU), NF-kB reporter gene assay
Value expressed in RLU; do not type the unit.

Example results:
binder="anti-human OX40 antibody BC3-6 (OX40 VHH-Fc) (Fc fusion, VHH fused through a linker to human IgG Fc, expressed in ExpiCHO, purified on Protein A; also called OX40 BC3-6; OX40 VHH-Fc antibody; not shown: linker encoded by the CMV-12GS-FC vector; human IgG FC fragment (hFC)) EVQLVESGGGLVQPGGSLRLSCAASGSILDSNLMGWFRQAPGKGRELVASINSYDDNTYYPDSVEGRFTISRDNAKRMVYLQMNSLRAEDTAVYYCAAQVFVGWPYTDQMHDYWGQGTQVTVSS" meas_value=50300
binder="anti-human OX40 antibody BC3-7 (OX40 VHH-Fc) (Fc fusion, VHH fused through a linker to human IgG Fc, expressed in ExpiCHO, purified on Protein A; also called OX40 BC3-7; OX40 VHH-Fc antibody; not shown: linker encoded by the CMV-12GS-FC vector; human IgG FC fragment (hFC)) EVQLVESGGGLVQPGGSLRLSCAASGSIYDFDVMGWFRQAPGKGRELVAAINSFGDITYYPDSVEGRFTISRDNAKRMVYLQMNSLRAEDTAVYYCAADWHVLIQQVLGYWGQGTQVTVSS" meas_value=48400
binder="anti-human OX40 antibody BC3-4 (OX40 VHH-Fc) (Fc fusion, VHH fused through a linker to human IgG Fc, expressed in ExpiCHO, purified on Protein A; also called OX40 BC3-4; OX40 VHH-Fc antibody; not shown: linker encoded by the CMV-12GS-FC vector; human IgG FC fragment (hFC)) EVQLVESGGGLVQPGGSLRLSCAASGFIFSAYFMGWFRQAPGKGRELVAAINSNDDITYYPDSVEGRFTISRDNAKRMVYLQMNSLRAEDTAVYYCAAWLGAENYGYWGQGTQVTVSS" meas_value=55700

Moving on to another binder below.
Query: Supply Maximum value (RLU), NF-kB reporter gene assay value. Item: anti-human OX40 antibody BC3-1 (OX40 VHH-Fc) (Fc fusion, VHH fused through a linker to human IgG Fc, expressed in ExpiCHO, purified on Protein A; also called OX40 BC3-1; OX40 VHH-Fc antibody; not shown: linker encoded by the CMV-12GS-FC vector; human IgG FC fragment (hFC)) EVQLVESGGGLVQPGGSLRLSCAASGSIFSVYVMGWFRQAPGKGRELVAAITPFDDNTYYPDSVEGRFTISRDNAKRMVYLQMNSLRAEDTAVYYCAADWEWPEYNYWGQGTQVTVSS
Reply: 53400
